molecular target: SARS-CoV-2 B.1.351 ('SA', beta) variant spike protein on pseudotyped virus or live virus (SARS-CoV-2 (B.1.351), UniProt P0DTC2 14-1273); assay: cell-based or functional assay
quantityKind: pseudovirus neutralization, ng/mL (quantity not given) (ng/mL)
One number for each entry, in ng/mL.

{"columns": ["binder", "unitInfo", "endpointResult"],
 "data": [
  ["R4C1 ultralong CDR3 chimeric bovine-human IgG1 antibody (antibody) VH: QVQLRESGPSLVKPSQTLSLTCTASGFSLSDKAVGWVRQAPGKPLEWLGSIDTAENTGYNPGLKSRLSITKDNSKSQVSLSVSSVTTEDSATYYCATVHQKTRKEKNCPDGYIYSSNTASGYDCGVWICRRVGSAFCSRTGDYTSPSEFDIYEFYVEGWGQGLLVTVSS VL: QAVLNQPSSVSGSLGQRVSITCSGSSSNVGNGYVSWYQLIPGSAPRTLIYGDTSRASGVPDRFSGSRSGNTATLTISSLQAEDEADYFCASAEDSSSNAVFGSGTTLTVL", "ng/mL", 375]
]}

Would you kindly look at the next entry?
input: Recorded pseudovirus neutralization, ng/mL (quantity not given) for R2D9 ultralong CDR3 chimeric bovine-human IgG1 antibody (antibody) VH: QVQLRESGPSLVKPSQTLSLTCTASGFSLSDKAIGWVRQAPGKALEWLGSIDTRGNTGYNPGLKSRLSITKDSSKSQVSLSVNSVTTEDSATYLCAIVQQITHKTCPNGYNWFDRCCSWDGTCGDGCCSNRAWPSGNGRADSSIGETYGYEFHVAAWGQGLLVTVSS VL: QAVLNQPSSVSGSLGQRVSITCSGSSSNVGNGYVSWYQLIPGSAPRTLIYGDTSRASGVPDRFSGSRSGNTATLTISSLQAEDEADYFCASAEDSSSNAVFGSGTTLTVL , please?
output: 0.33
